# assay overview: xn = mol fraction of the nth substance listed
# details: 298.15 K; 101 kPa; x1 = 0.5
value kind: viscosity (mPa·s)
Note: unit mPa·s is implicit; provide only the numeric part.

Guide cases for viscosity, answers given:
Reported viscosity for Oc1ccc(Cl)cc1 + CCCCCOC(C)=O was 1.27

Reported viscosity for CC(C)CCO + c1ccccc1 was 1.037

Continuing:
Reported viscosity for CCOCCO + C1CCCCC1 was 1.093

Reported viscosity for Oc1ccc(Cl)cc1 + CCO was 1.454

---

# details: 303.15 K; 101 kPa
Catalogue of viscosity readings, one per entry.
Note: unit mPa·s is implicit; provide only the numeric part.

Guide cases for viscosity, answers given:
Reported viscosity for CNCCO was 8.596

Reported viscosity for C[C@@H]1CCCC[C@H]1O was 25.29

Reported viscosity for N#C[C-](C#N)C#N.OCCC[n+]1ccccc1 was 69.51

Pending compound:
Reported viscosity for Cn1cc[n+](CCCC#N)c1.O=S(=O)([O-])C(F)(F)F was 422.5

---

# details: 323.15 K; 101 kPa
value kind: viscosity (mPa·s)
Note: unit mPa·s is implicit; provide only the numeric part.

Reported viscosity for Cn1cc[n+](CCCC#N)c1.O=S(=O)([O-])C(F)(F)F was 141.4

Continuing:
Reported viscosity for CCOCCO was 1.065

Reported viscosity for CNCCO was 4.204

Reported viscosity for N#C[C-](C#N)C#N.OCCC[n+]1ccccc1 was 28.1

---

# details: 318.15 K; 101 kPa
value kind: viscosity (mPa·s)
Note: unit mPa·s is implicit; provide only the numeric part.

Reported viscosity for Cn1cc[n+](CCCC#N)c1.O=S(=O)([O-])C(F)(F)F was 177.1

Reported viscosity for Cc1cccc(Cl)c1 was 0.624

Reported viscosity for N#C[C-](C#N)C#N.OCCC[n+]1ccccc1 was 34.64

Reported viscosity for CCOCCO was 1.279

Pending molecule:
Reported viscosity for CNCCO was 4.949

---

# details: 293.15 K; 101 kPa
value kind: viscosity (mPa·s)
Note: unit mPa·s is implicit; provide only the numeric part.

Reported viscosity for CNC(C)=O was 5.56

Reported viscosity for Cn1cc[n+](CCCC#N)c1.O=S(=O)([O-])C(F)(F)F was 811.5

Reported viscosity for CCOCCO was 2.054

Reported viscosity for N#C[C-](C#N)C#N.OCCC[n+]1ccccc1 was 126.3

Pending compound:
Reported viscosity for CCCCCCCCBr was 1.544

---

# details: 308.15 K; 101 kPa
value kind: viscosity (mPa·s)
Note: unit mPa·s is implicit; provide only the numeric part.

Guide cases for viscosity, answers given:
Reported viscosity for N#C[C-](C#N)C#N.OCCC[n+]1ccccc1 was 53.84

Reported viscosity for Cn1cc[n+](CCCC#N)c1.O=S(=O)([O-])C(F)(F)F was 310.1

Reported viscosity for Cc1cccc(Cl)c1 was 0.701

Reported viscosity for CNCCO was 7.075

Continuing:
Reported viscosity for CNC(C)=O was 3.535

---

Catalogue of viscosity readings, one per entry.
# details: 298.15 K; 101 kPa
Note: unit mPa·s is implicit; provide only the numeric part.

Guide cases for viscosity, answers given:
Reported viscosity for N#C[C-](C#N)C#N.OCCC[n+]1ccccc1 was 92.54

Reported viscosity for C[C@@H]1CCCC[C@H]1O was 37.35

Reported viscosity for CC(CC(C)(C)C)CP(=O)(O)CC(C)CC(C)(C)C (stereo unspecified) was 120

Reported viscosity for CCOCCO was 1.814

Reported viscosity for Cn1cc[n+](CCCC#N)c1.O=S(=O)([O-])C(F)(F)F was 580.6

Pending compound:
Reported viscosity for CNC(C)=O was 4.771
